# MEASUREMENT_TARGET: PDE8A (Homo sapiens)
# Sequence (O60658 whole entry, looked up): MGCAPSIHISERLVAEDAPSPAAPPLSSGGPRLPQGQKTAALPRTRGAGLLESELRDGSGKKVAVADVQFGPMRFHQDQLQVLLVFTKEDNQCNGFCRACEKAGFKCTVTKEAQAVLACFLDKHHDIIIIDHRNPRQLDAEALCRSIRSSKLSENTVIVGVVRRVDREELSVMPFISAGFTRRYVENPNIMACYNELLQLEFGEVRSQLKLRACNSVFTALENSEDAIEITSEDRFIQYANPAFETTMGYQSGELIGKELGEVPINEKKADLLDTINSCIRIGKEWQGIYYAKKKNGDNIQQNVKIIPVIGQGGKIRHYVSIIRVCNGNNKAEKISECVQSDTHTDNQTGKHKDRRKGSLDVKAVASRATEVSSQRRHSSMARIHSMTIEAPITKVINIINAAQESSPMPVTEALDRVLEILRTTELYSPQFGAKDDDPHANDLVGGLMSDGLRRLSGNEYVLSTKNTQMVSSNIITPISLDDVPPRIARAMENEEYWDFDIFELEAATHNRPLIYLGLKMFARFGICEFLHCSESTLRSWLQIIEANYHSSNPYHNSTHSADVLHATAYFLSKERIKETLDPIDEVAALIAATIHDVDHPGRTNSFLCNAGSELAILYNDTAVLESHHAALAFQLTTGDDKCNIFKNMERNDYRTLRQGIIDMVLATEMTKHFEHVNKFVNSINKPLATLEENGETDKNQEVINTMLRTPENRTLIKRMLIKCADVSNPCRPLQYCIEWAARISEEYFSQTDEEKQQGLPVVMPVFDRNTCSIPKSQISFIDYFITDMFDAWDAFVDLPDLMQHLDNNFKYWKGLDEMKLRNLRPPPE
# METHOD_DESCRIPTION: PDE inhibition, recombinant PDE8A (SPA)
# EXPERIMENTAL_PARAMETERS: Isoenzyme PDE8A
pIC50: −log10 of the molar value.
MEASURE: pIC50

q: Data request, read-out pIC50, for CCC(CC)n1ncc2c(=O)[nH]c(CC3CCCCC3)nc21 [Example 2]
a: < 5.40

* * *

# MEASUREMENT_TARGET: PDE10A (Homo sapiens (Human))
# Sequence (Q9Y233 other isoform, or with tags, fused parts or gaps): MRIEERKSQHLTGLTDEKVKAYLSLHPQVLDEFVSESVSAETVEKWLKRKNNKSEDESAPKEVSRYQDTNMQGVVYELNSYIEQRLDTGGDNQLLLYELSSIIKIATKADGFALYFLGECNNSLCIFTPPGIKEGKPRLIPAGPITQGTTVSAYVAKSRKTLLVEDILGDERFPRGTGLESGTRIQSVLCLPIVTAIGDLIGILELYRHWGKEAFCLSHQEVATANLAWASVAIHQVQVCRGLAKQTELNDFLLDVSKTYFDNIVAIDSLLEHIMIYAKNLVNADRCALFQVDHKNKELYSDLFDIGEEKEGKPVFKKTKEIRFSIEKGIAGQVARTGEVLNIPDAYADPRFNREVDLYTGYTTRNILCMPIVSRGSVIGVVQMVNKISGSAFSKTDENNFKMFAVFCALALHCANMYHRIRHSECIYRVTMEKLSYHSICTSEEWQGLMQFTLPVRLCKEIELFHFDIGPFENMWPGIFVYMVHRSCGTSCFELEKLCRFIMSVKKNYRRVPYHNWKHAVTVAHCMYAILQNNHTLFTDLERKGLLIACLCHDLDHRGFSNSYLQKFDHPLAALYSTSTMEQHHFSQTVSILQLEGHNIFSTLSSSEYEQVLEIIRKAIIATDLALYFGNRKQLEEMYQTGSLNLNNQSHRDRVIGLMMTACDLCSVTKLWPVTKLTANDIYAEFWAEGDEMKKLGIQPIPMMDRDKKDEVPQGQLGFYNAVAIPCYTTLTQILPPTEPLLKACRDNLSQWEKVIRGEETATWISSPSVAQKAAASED
# METHOD_DESCRIPTION: PDE inhibition, recombinant PDE10A (SPA)
# EXPERIMENTAL_PARAMETERS: Isoenzyme PDE10A
pIC50: −log10 of the molar value.
MEASURE: pIC50

q: Give recorded pIC50 with PDE10A (Homo sapiens (Human)) for the following molecule: `CCC(CC)n1ncc2c(=O)[nH]c(CC3CCCCC3)nc21`
a: < 5.40

The values you see were collected from patent US9067945B2.
